- Organism: Mus musculus
- assay.explanation: Percentage dose injected in the whole brain of mouse was determined.
- Assay type: functional
endpoint: Dose
Returns: string containing the numeric result and its unit.

Some molecules with known Dose results, for comparison:
1. OC1Cc2cccc([125I])c2CC1N1CCC(c2ccccc2)CC1 (racemic) : 0.56%
2. [3H]OC1CCCCC1N1CCC(c2ccccc2)CC1 (centres undefined) : 0.24%
3. O[C@H]1Cc2cccc([125I])c2C[C@@H]1N1CCC(c2ccccc2)CC1 : 0.06%

Attention now turns to another entry.
For this molecule ( `O[C@@H]1Cc2cccc(I)c2C[C@H]1N1CCC(c2ccccc2)CC1` ), measured Dose is 1.03%
